Numbered stars: 1 amine (or outer) side, 2 acyl side, 3 side chain; on linkers, the order of the positions; unused ones are H or OH. Bridge positions count the residues as written; N and C are the ends. Square brackets hold non-standard residues; d marks the D form. Peptide text beside a SMILES is read from it. X1 = O=C(CC1(S[*:2])CCCCC1)[*:1]
property: Ki (nM)
Answer format: numeric, nM implied, no suffix.

The observed Ki for CCOc1ccc(C[C@H]2NC(=O)CC3(CCCCC3)SSC[C@@H](C(=O)N[C@@H](CCCNC(=N)N)C(=O)N[C@@H](Cc3ccc(O)cc3)C(N)=O)NC(=O)[C@H](CC(N)=O)NC(=O)[C@H](C(C)C)NC(=O)[C@H](Cc3ccccc3)NC2=O)cc1 [No. 2] ([dY](Et)FVNCRY-NH2; linker N-5 via X1) when tested with UniProt:P32307 stands at 23

The observed Ki for CCOc1ccc(C[C@H]2NC(=O)CC3(CCCCC3)SSC[C@@H](C(=O)N[C@@H](CCCNC(=N)N)C(N)=O)NC(=O)[C@H](CC(N)=O)NC(=O)[C@H](C(C)C)NC(=O)[C@H](Cc3ccccc3)NC2=O)cc1 [compound 5] ([dY](Et)FVNCR-NH2; linker N-5 via X1) when tested with UniProt:P32307 stands at 11

Let me check: CCOc1ccc(C[C@H]2NC(=O)CC3(CCCCC3)SSC[C@@H](C(=O)N[C@@H](CCCCN)C(=O)N[C@@H](CCCNC(=N)N)C(N)=O)NC(=O)[C@H](CC(N)=O)NC(=O)[C@H](C(C)C)NC(=O)[C@H](Cc3ccccc3)NC2=O)cc1 [compound 4] ([dY](Et)FVNCKR-NH2; linker N-5 via X1) , system UniProt:P32307, measured Ki is 8.8

---

For each entry below, report its Ki value.
- target: vasopressin receptors (V2 -receptors) in the porcine renal medullary membrane (Sus scrofa, UniProt P32307)
- Sequence (P32307 whole entry): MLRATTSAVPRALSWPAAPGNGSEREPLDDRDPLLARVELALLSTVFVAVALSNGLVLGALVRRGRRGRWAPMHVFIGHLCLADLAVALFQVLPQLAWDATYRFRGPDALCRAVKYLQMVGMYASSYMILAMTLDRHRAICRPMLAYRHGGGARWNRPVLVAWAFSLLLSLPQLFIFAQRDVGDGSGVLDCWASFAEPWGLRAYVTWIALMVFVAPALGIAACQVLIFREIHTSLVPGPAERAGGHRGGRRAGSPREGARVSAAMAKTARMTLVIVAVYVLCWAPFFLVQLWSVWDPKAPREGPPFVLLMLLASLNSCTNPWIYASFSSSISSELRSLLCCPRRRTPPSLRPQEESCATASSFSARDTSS
Numbered stars: 1 amine (or outer) side, 2 acyl side, 3 side chain; on linkers, the order of the positions; unused ones are H or OH. Bridge positions count the residues as written; N and C are the ends. Square brackets hold non-standard residues; d marks the D form. Peptide text beside a SMILES is read from it. X1 = O=C(CC1(S[*:2])CCCCC1)[*:1]
Note: state the figure and append the unit.

Briefly, Ki measured for CCOc1ccc(C[C@H]2NC(=O)CC3(CCCCC3)SSC[C@@H](C(=O)N[C@@H](Cc3ccc(O)cc3)C(=O)N[C@@H](CCCNC(=N)N)C(N)=O)NC(=O)[C@H](CC(N)=O)NC(=O)[C@H](C(C)C)NC(=O)[C@H](Cc3ccccc3)NC2=O)cc1 [No. 1] ([dY](Et)FVNCYR-NH2; linker N-5 via X1) : 14 nM

What the record says about CCOc1ccc(C[C@H]2NC(=O)CC3(CCCCC3)SSC[C@@H](C(=O)N[C@@H](CCCNC(=N)N)C(=O)N[C@@H](CCCNC(=N)N)C(N)=O)NC(=O)[C@H](CC(N)=O)NC(=O)[C@H](C(C)C)NC(=O)[C@H](Cc3ccccc3)NC2=O)cc1 [compound 3] ([dY](Et)FVNCRR-NH2; linker N-5 via X1) : Ki is 2.7 nM
